- System: U937
- protocol: Anti-proliferation, 24 hr treatment (CellTiter-Glo)
- Type: cell-based, human
- condition summary: 24 hr treatment; U937 (FLT3 wt or null); read-out: Anti-proliferation IC50

smiles code: O=C(NCCCN1CCN(Cc2ccccc2)CC1)c1ccc2nc3c(c(Cl)c2c1)CCCC3
test system: U937
measure unit: µM
IC50: 13.7
--
smiles code: CCCN(CCC)CCCNC(=O)c1ccc2c(Cl)c3c(nc2c1)CCCC3
test system: U937
measure unit: µM
IC50: 12.9
--
smiles code: CCN(CCCNC(=O)c1ccc2nc3c(c(Cl)c2c1)CCC3)Cc1ccccc1
test system: U937
measure unit: µM
IC50: 16.2
--
smiles code: O=C(NCCN1CCN(Cc2ccccc2)CC1)c1ccc2nc3c(c(Cl)c2c1)CCCC3
test system: U937
measure unit: µM
IC50: 21.9
